target: KRas^G12V (Homo sapiens, UniProt P01116, G12V); construct: Biotinylated KRas (corresponding to amino acids 1-169, produced at Accelegan Inc.); biotin (biotinylated); purchased Accelegan Inc; test: KRas binding assay (TR-FRET tracer displacement), KRas G12V
Sequence (P01116 1-169 isoform P01116-2 G12V): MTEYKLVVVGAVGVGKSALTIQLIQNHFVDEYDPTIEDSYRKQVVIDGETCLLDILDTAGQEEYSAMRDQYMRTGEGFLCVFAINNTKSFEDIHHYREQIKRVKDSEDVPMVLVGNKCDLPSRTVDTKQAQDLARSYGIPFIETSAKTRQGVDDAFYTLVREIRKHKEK
Assay readout: IC50 (nM)
Give your result in nM as a bare value.

Check out these entries, answers already filled in.
Molecule	Target or system	IC50 / nM
CCc1c(F)ccc2cc(O)c(F)c(-c3ncc4c(N5C[C@@H]6C[C@H](C5)[C@H](O)C6)nc(OC[C@@]56CCCN5C[C@H](F)C6)nc4c3F)c12	KRas^G12V (Homo sapiens, UniProt P01116, G12V)	2
CCc1c(F)ccc2cc(O)cc(-c3ncc4c(N5CCC[C@@](C)(O)C5)nc(OC[C@]56CCCN5[C@@H](COC)CC6)nc4c3F)c12	KRas^G12V (Homo sapiens, UniProt P01116, G12V)	3

Would you mind telling me what IC50 value was observed for CCc1c(F)ccc2cc(O)cc(-c3ncc4c(N5CCCCC(C#N)C5)nc(OC[C@@]56CCCN5C[C@H](F)C6)nc4c3F)c12 (stereo partly drawn) ?
7

---

Listing of entries alongside the reported inhibition at 0.01 µM.
target: KRas^Q61H (Homo sapiens, UniProt P01116, Q61H); construct: Biotinylated KRas (corresponding to amino acids 1-169, produced at Accelegan Inc.); biotin (biotinylated); purchased Accelegan Inc; assay: KRas binding assay (TR-FRET tracer displacement), KRas Q61H; conditions: single point, 10 nM compound, TR-FRET
Sequence (P01116 1-169 isoform P01116-2 Q61H): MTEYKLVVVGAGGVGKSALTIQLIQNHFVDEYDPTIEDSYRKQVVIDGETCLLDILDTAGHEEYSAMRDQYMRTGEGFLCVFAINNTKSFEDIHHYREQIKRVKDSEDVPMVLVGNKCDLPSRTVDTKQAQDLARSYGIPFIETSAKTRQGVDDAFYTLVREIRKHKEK

Check out these entries, answers already filled in.
Molecule	inhibition at 0.01 µM
Oc1cc(-c2ncc3c(N4CCCC5(CCO5)C4)nc(OC[C@@]45CCCN4C[C@H](F)C5)nc3c2F)c2c(Cl)c(F)ccc2c1 (stereo partly drawn)	95%
CCc1c(F)ccc2cc(O)cc(-c3ncc4c(N5CCC[C@@]6(CCO6)C5)nc(OCC5(CN(C)C)CC5)nc4c3F)c12	96%

With those in mind, consider the next molecule.
Would you mind telling me what inhibition at 0.01 µM value was observed for `CCc1c(F)ccc2cc(O)cc(-c3ncc4c(N5CCC[C@@](C)(O)C5)nc(OC[C@@]56CCCN5[C@H](COC(=O)NC)CC6)nc4c3F)c12` ?
88%

---

molecular target: KRas^G13D (Homo sapiens, UniProt P01116, G13D); construct: Biotinylated KRas (corresponding to amino acids 1-169, produced at Accelegan Inc.); biotin (biotinylated); purchased Accelegan Inc; test: KRas binding assay (TR-FRET tracer displacement), KRas G13D; conditions: single point, 10 nM compound, TR-FRET
Sequence (P01116 1-169 isoform P01116-2 G13D): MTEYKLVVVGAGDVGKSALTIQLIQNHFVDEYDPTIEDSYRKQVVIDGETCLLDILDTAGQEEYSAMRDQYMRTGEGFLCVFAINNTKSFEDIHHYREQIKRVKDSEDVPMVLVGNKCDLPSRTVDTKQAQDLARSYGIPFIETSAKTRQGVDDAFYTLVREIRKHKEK
Response key: 1 means inhibition at 0.01 µM >= 90%; -1 means inhibition at 0.01 µM < 90%.

Molecule	Label value
CCc1c(F)ccc2cc(O)cc(-c3ncc4c(N5CC6CCC(C5)C6C#N)nc(OC[C@@]56CCCN5C[C@H](F)C6)nc4c3F)c12 (stereo partly drawn) [Example 559]	-1
CCc1c(F)ccc2cc(O)cc(-c3ncc4c(N5CCCn6nc(C(=O)N(C)C)c(C)c6C5)nc(OC[C@@]56CCCN5C[C@H](F)C6)nc4c3F)c12 [Example 670]	1
CCc1c(F)ccc2cc3[nH]ncc3c(-c3ncc4c(N5CCC[C@@](C)(O)C5)nc(OC[C@@]56CCCN5C[C@H](F)C6)nc4c3F)c12 [Example 776]	-1

Could you please find out whether CCc1c(F)ccc2cc(O)cc(-c3ncc4c(N5CCCC6(CC(O)C6)C5)nc(OCC5(CN(C)C)CC5)nc4c3F)c12 (stereo not drawn) [Example 698] has inhibition at 0.01 µM that meets 90% or exceeds it?
-1

// repeat for CCc1c(F)ccc2cc(O)cc(-c3ncc4c(N5CCOCC(C)(O)C5)nc(OCC56CCCN5[C@H](COC(=O)N(C)C)CC6)nc4c3F)c12 (stereo in doubt) [Example 710] and report
-1

// repeat for Oc1cc(-c2ncc3c(N4CCCC5(CCO5)C4)nc(OC[C@@]45CCCN4C[C@H](F)C5)nc3c2F)c2c(Cl)c(F)ccc2c1 (stereo partly drawn) [Example 773] and report
1

// repeat for CCc1c(F)ccc2cc(O)cc(-c3ncc4c(N5CCCC6(CNS(=O)(=O)N6)C5)nc(OC[C@]56CCCN5[C@H](COC(=O)N(C)C)CC6)nc4c3F)c12 (stereo partly drawn) [Example 716] and report
1

// repeat for CCc1c(F)ccc2cc(O)cc(-c3ncc4c(N5CCC[C@]6(CCO6)C5)nc(OCC5(CN(C)C)CC5)nc4c3F)c12 [Example 699] and report
1

// repeat for CCNC(=O)OC[C@@H]1CC[C@]2(COc3nc(N4CCC[C@@](C)(O)C4)c4cnc(-c5cc(O)cc6ccc(F)c(CC)c56)c(F)c4n3)CCCN12 [Example 717] and report
1

// repeat for CCc1c(F)ccc2cc(O)cc(-c3ncc4c(N5CCC[C@]6(C5)C[C@@H](O)C6)nc(OC[C@@]56CCCN5[C@H](COC(=O)N(C)C)CC6)nc4c3F)c12 [Example 713] and report
-1

// repeat for CCc1c(F)ccc2cc(O)cc(-c3ncc4c(N5CCC[C@@](C)(O)C5)nc(OC[C@@]56CCCN5[C@H](COC(=O)N5CCCC5)CC6)nc4c3F)c12 [Example 719] and report
1

---

target: KRas^G12V (Homo sapiens, UniProt P01116, G12V); construct: Biotinylated KRas (corresponding to amino acids 1-169, produced at Accelegan Inc.); biotin (biotinylated); purchased Accelegan Inc; assay: KRas binding assay (TR-FRET tracer displacement), KRas G12V
Assay readout: IC50 (nM)
Give your result in nM as a bare value.

Check out these entries, answers already filled in.
Compound	Target or system	Unit tag	IC50
CCc1c(F)ccc2cc(O)cc(-c3ncc4c(N5CCC[C@@](C)(O)C5)nc(N5CC(N(C)C)C5)nc4c3F)c12	KRas^G12V (Homo sapiens, UniProt P01116, G12V)	nM	105
C#CC1(F)CCN(c2nc(OC[C@@]34CCCN3C[C@H](F)C4)nc3c(F)c(-c4cc(O)cc5ccc(F)c(CC)c45)ncc23)CC1	KRas^G12V (Homo sapiens, UniProt P01116, G12V)	nM	77
CCc1c(F)ccc2cc(O)cc(-c3ncc4c(N5CCC(Cc6ccn(C)n6)C5)nc(OC[C@@]56CCCN5C[C@H](F)C6)nc4c3F)c12 (stereo partly drawn)	KRas^G12V (Homo sapiens, UniProt P01116, G12V)	nM	121

Would you mind telling me what IC50 value was observed for `CCc1c(F)ccc2cc(O)cc(-c3ncc4c(N5Cc6n[nH]c(C(N)=O)c6C5)nc(OC[C@@]56CCCN5C[C@H](F)C6)nc4c3F)c12` ?
314

// repeat for `CCc1c(F)ccc2cc(O)cc(-c3ncc4c(NCc5cc(C(=O)N(C)C)n([C@H]6C[C@@H](O)C6)n5)nc(OC[C@@]56CCCN5C[C@H](F)C6)nc4c3F)c12` and report
51

// repeat for CCc1c(F)ccc2cc(O)cc(-c3ncc4c(N5CC(C)(O)C6CC5C6)nc(OC[C@@]56CCCN5C[C@H](F)C6)nc4c3F)c12 (stereo partly drawn) and report
43

---

Listing of entries alongside the reported IC50.
target: KRas^G12D (Homo sapiens, UniProt P01116, G12D); construct: Biotinylated KRas (corresponding to amino acids 1-169, produced at Accelegan Inc.); biotin (biotinylated); purchased Accelegan Inc; test: KRas binding assay (TR-FRET tracer displacement), KRas G12D
Sequence (P01116 1-169 isoform P01116-2 G12D): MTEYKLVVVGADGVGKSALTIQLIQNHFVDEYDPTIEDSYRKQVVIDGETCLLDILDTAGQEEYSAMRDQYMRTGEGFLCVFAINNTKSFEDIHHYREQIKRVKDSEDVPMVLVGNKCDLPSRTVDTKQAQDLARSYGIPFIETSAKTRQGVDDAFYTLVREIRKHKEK
Give your result in nM as a bare value.

Check out these entries, answers already filled in.
Compound	Target or system	IC50, nM
CCc1c(F)ccc2cc(O)cc(-c3ncc4c(N5CCOC[C@@](C)(COC)C5)nc(OC[C@@]56CCCN5C[C@H](F)C6)nc4c3F)c12 [Example 602]	KRas^G12D (Homo sapiens, UniProt P01116, G12D)	484
CCc1c(F)ccc2cc(O)cc(-c3ncc4c(N5CCC(S(C)(=N)=O)C5)nc(OC[C@@]56CCCN5C[C@H](F)C6)nc4c3F)c12 (stereo partly drawn) [Example 580]	KRas^G12D (Homo sapiens, UniProt P01116, G12D)	296
CCc1c(F)ccc2cc(O)cc(-c3ncc4c(N5CCC[C@@](C)(O)C5)nc(OCC56CC5CCN(C)C6)nc4c3F)c12 (stereo partly drawn) [Example 701]	KRas^G12D (Homo sapiens, UniProt P01116, G12D)	4
CCc1c(F)ccc2cc3[nH]ncc3c(-c3ncc4c(N5CCC[C@@](C)(O)C5)nc(OC[C@@]56CCCN5C[C@H](F)C6)nc4c3F)c12 [Example 776]	KRas^G12D (Homo sapiens, UniProt P01116, G12D)	2
Cc1cc2[nH]ncc2c(-c2ncc3c(N4CCC[C@]5(C4)NC(=O)NC5=O)nc(OCC4(CN(C)C)CC4)nc3c2F)c1C [Example 732]	KRas^G12D (Homo sapiens, UniProt P01116, G12D)	113
CCc1c(F)ccc2cc(O)cc(-c3ncc4c(N5CC6CCC(CC(N)=O)(C6)C5)nc(OC[C@@]56CCCN5C[C@H](F)C6)nc4c3F)c12 (stereo partly drawn) [Example 908]	KRas^G12D (Homo sapiens, UniProt P01116, G12D)	14
CCc1c(F)ccc2cc(O)cc(-c3ncc4c(N5CCCc6ncncc6C5)nc(OC[C@@]56CCCN5C[C@H](F)C6)nc4c3F)c12 [Example 582]	KRas^G12D (Homo sapiens, UniProt P01116, G12D)	3
CCc1c(F)ccc2cc(O)cc(-c3ncc4c(N5CC(C)(O)C6CC5C6)nc(OC[C@@]56CCCN5C[C@H](F)C6)nc4c3F)c12 (stereo partly drawn) [Example 893]	KRas^G12D (Homo sapiens, UniProt P01116, G12D)	92

Would you mind telling me what IC50 value was observed for CCc1c(F)ccc2cc(O)cc(-c3ncc4c(N5CCC[C@@](C)(O)C5)nc(OC[C@@]56CCCN5[C@@H](CNS(=O)(=O)N(C)C)CC6)nc4c3F)c12 [Example 788] ?
2

// repeat for CCc1c(F)ccc2cc(O)cc(-c3ncc4c(N5CCC(CC6CCOC6)C5)nc(OC[C@@]56CCCN5C[C@H](F)C6)nc4c3F)c12 (stereo partly drawn) [Example 596] and report
805

Data origin: patent US20260015350A1
